- RUN_DESCRIPTION: Test for pharmacokinetics in ICR mice (oral)
- Assay type: in vivo
- RUN_CONDITIONS: 50 mg/kg, ICR mouse, 5 mg/mL solution at 10 mL/kg, plasma
QUANTITY_NAME: half-life (h)
A number alone suffices; assume h.

Example results:
CN1CCN(C2=Nc3ccc(Br)cc3N3CC(=O)N=C23)CC1 1.73
CN1CCN(C2=Nc3ccc([N+](=O)[O-])cc3N3CC(=O)N=C23)CC1 2.04

Now let's try a different one.
Item "CN1CCN(C2=Nc3ncc(Br)cc3N3CC(=O)N=C23)CC1" has what recorded half-life?
3.81

----------
Here the recorded inhibition at 1 µM is given for each entry.
- ASSAYED_TARGET: human histamine 4 receptor (hH4R) (Homo sapiens)
- Construct: purchased Multispan
- RUN_DESCRIPTION: Binding affinity of human histamine 4 receptor (hH4R), [3H] histamine displacement
- RUN_CONDITIONS: [3H] labeled histamine, hH4R-overexpressed cell membrane
A number alone suffices; assume %.

Example results:
MOLECULE	inhibition at 1 µM / %
CNC1CN(C2=Nc3cnc(Br)cc3N3CC(=O)N=C23)C1 [Example 26]	93.4
CN1CCN(C2=Nc3ccc(Cl)nc3N3CC(=O)N=C23)CC1 [Example 29]	97.3

Item CN1CCN(C2=Nc3ccc(Br)nc3N3CC(=O)N=C23)CC1 [Example 30] has what recorded inhibition at 1 µM?
93.2

----------
Here the recorded Cmax is given for each entry.
- RUN_DESCRIPTION: Test for pharmacokinetics in ICR mice (oral)
- Assay type: in vivo
- RUN_CONDITIONS: 50 mg/kg, ICR mouse, 5 mg/mL solution at 10 mL/kg, plasma
A number alone suffices; assume ng/mL.

Example results:
CN1CCN(C2=Nc3ccc([N+](=O)[O-])cc3N3CC(=O)N=C23)CC1 360
CN1CCN(C2=Nc3ccc(Br)cc3N3CC(=O)N=C23)CC1 570

Item "CN1CCN(C2=Nc3ncc(Br)cc3N3CC(=O)N=C23)CC1" has what recorded Cmax?
2280

Item "CNC1CN(C2=Nc3ccc(Br)cc3N3CC(=O)N=C23)C1" has what recorded Cmax?
2500

----------
Here the recorded inhibition at 1 µM is given for each entry.
- ASSAYED_TARGET: human histamine 4 receptor (hH4R) (Homo sapiens)
- Construct: purchased Multispan
- RUN_DESCRIPTION: Binding affinity of human histamine 4 receptor (hH4R), [3H] histamine displacement
- RUN_CONDITIONS: [3H] labeled histamine, hH4R-overexpressed cell membrane
Structures can show the parent of a compound that is named as a salt.
A number alone suffices; assume %.

Example results:
MOLECULE	inhibition at 1 µM, %
CN1CCN(C2=Nc3ncc(Cl)cc3N3CC(=O)N=C23)CC1	87.1
CN1CCN(C2=Nc3cnc(Br)cc3N3CC(=O)N=C23)CC1	96.9
O=C1CN2C(=N1)C(N1CCN3CCCC3C1)=Nc1ncc(Br)cc12 (stereo not drawn)	55.9
CN1CCN(C2=Nc3ccc(N)cc3N3CC(=O)N=C23)CC1	44.8
CN1CCN(C2=Nc3ccc([N+](=O)[O-])cc3N3CC(=O)N=C23)CC1	98.1

Item "CN[C@@H]1CCN(C2=Nc3ncc(Br)cc3N3CC(=O)N=C23)C1" has what recorded inhibition at 1 µM?
9.8

Item CN1CCN(C2=Nc3cnc(Cl)cc3N3CC(=O)N=C23)CC1 [Example 28, hydrochloride] has what recorded inhibition at 1 µM?
96.8

Item "CN1CCN(c2nc3ncc(Br)cc3n3c(=O)[nH]nc23)CC1" has what recorded inhibition at 1 µM?
42.6

Item "CN1CCN(c2nc3ncc(Br)cc3n3[nH]c(=O)nc23)CC1" has what recorded inhibition at 1 µM?
-1.12

----------
- ASSAYED_TARGET: human histamine 4 receptor (hH4R) (Homo sapiens, UniProt Q9H3N8)
- Construct: purchased Multispan
- Sequence (Q9H3N8 whole entry): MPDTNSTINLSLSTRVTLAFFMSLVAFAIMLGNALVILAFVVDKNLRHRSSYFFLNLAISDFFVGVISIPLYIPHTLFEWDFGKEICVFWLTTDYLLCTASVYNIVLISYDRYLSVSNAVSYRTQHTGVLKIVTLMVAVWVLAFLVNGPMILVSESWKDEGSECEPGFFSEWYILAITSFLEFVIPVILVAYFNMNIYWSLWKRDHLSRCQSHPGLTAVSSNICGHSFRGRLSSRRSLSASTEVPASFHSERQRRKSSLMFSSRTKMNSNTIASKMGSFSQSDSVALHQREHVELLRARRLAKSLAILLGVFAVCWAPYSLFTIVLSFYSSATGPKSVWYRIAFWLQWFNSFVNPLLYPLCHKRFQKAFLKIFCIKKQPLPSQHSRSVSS
- RUN_DESCRIPTION: Binding affinity of human histamine 4 receptor (hH4R), [3H] histamine displacement
- RUN_CONDITIONS: [3H] labeled histamine, hH4R-overexpressed cell membrane
QUANTITY_NAME: inhibition at 1 µM (%)
A number alone suffices; assume %.

CNC1CN(C2=Nc3ncc(Br)cc3N3CC(=O)N=C23)C1 39.5

Item "CN1CCN(C2=Nc3nc(Cl)c(Br)cc3N3CC(=O)N=C23)CC1" has what recorded inhibition at 1 µM?
88.9

Item "CNC1CN(C2=Nc3ccc(N)cc3N3CC(=O)N=C23)C1" has what recorded inhibition at 1 µM?
34.1

Item "CN1CCN(C2=Nc3nc(F)c(Br)cc3N3CC(=O)N=C23)CC1" has what recorded inhibition at 1 µM?
94.4

Item "CN1CCN(C2=Nc3ccc(Br)cc3N3CC(=O)NN=C23)CC1" has what recorded inhibition at 1 µM?
52.6

Item "CN[C@H]1CCN(C2=Nc3ncc(Br)cc3N3CC(=O)N=C23)C1" has what recorded inhibition at 1 µM?
-4.38

Item "CNC1CN(C2=Nc3ccc(Br)nc3N3CC(=O)N=C23)C1" has what recorded inhibition at 1 µM?
97.4

Item "CN1CCN(C2=Nc3ccc(Br)cc3N3CC(=O)N=C23)CC1" has what recorded inhibition at 1 µM?
101

Item "CN1CCN(C2=Nc3ncc(Br)cc3N3CC(=O)N=C23)CC1" has what recorded inhibition at 1 µM?
79.7

----------
- RUN_DESCRIPTION: Test for pharmacokinetics in ICR mice (oral)
- Type: in vivo
- RUN_CONDITIONS: 50 mg/kg, ICR mouse, 5 mg/mL solution at 10 mL/kg, plasma
Here the recorded AUC is given for each entry.
Number plus unit, in that order.

CNC1CN(C2=Nc3ccc(Br)cc3N3CC(=O)N=C23)C1 30500 ng·h/mL

Item "CN1CCN(C2=Nc3ccc(Br)cc3N3CC(=O)N=C23)CC1" has what recorded AUC?
1390 ng·h/mL

Item "CN1CCN(C2=Nc3ncc(Br)cc3N3CC(=O)N=C23)CC1" has what recorded AUC?
8650 ng·h/mL

Item "CN1CCN(C2=Nc3ccc([N+](=O)[O-])cc3N3CC(=O)N=C23)CC1" has what recorded AUC?
920 ng·h/mL

----------
- ASSAYED_TARGET: human histamine 4 receptor (hH4R) (Homo sapiens)
- Construct: purchased Multispan
- RUN_DESCRIPTION: Binding affinity of human histamine 4 receptor (hH4R), [3H] histamine displacement
- RUN_CONDITIONS: [3H] labeled histamine, hH4R-overexpressed cell membrane
Structures can show the parent of a compound that is named as a salt.
Here the recorded inhibition at 1 µM is given for each entry.
A number alone suffices; assume %.

COMPOUND	ASSAYED_TARGET	QUANTITY_NAME	MEASURED
CNC1CN(C2=Nc3ccc(Br)cc3N3CC(=O)N=C23)C1 [Example 21, hydrochloride]	human histamine 4 receptor (hH4R) (Homo sapiens)	inhibition at 1 µM	95.9
CNC1CN(C2=Nc3ncc(Cl)cc3N3CC(=O)N=C23)C1 [Example 20]	human histamine 4 receptor (hH4R) (Homo sapiens)	inhibition at 1 µM	20.5
CN1CCN(C2=Nc3ccc(Br)c(Br)c3N3CC(=O)N=C23)CC1 [Example 15]	human histamine 4 receptor (hH4R) (Homo sapiens)	inhibition at 1 µM	99.2
CN1CCN(C2=Nc3ncc(Br)cc3N3CS(=O)(=O)N=C23)CC1 [Example 27]	human histamine 4 receptor (hH4R) (Homo sapiens)	inhibition at 1 µM	22.6
CNC1CN(C2=Nc3ccc(Cl)nc3N3CC(=O)N=C23)C1 [Example 31]	human histamine 4 receptor (hH4R) (Homo sapiens)	inhibition at 1 µM	97.7

Item CNC1CN(C2=Nc3ccc(Cl)cc3N3CC(=O)N=C23)C1 [Example 19] has what recorded inhibition at 1 µM?
96

Item CNC1CN(C2=Nc3ccc(NS(C)(=O)=O)cc3N3CC(=O)N=C23)C1 [Example 16] has what recorded inhibition at 1 µM?
-5.98

Item CN1CCN(C2=Nc3cc(Cl)ncc3N3CC(=O)N=C23)CC1 [Example 22] has what recorded inhibition at 1 µM?
86.3

Item CNC1CN(C2=Nc3cnc(Cl)cc3N3CC(=O)N=C23)C1 [Example 23, hydrochloride] has what recorded inhibition at 1 µM?
89.4
